Origin of values: patent US10765631B2

Target: WASp (Homo sapiens, UniProt P42768)
Construct: expressed in transfected cells; host or cells: 293T cells, calcium-phosphate transfection
Sequence (P42768 1-502): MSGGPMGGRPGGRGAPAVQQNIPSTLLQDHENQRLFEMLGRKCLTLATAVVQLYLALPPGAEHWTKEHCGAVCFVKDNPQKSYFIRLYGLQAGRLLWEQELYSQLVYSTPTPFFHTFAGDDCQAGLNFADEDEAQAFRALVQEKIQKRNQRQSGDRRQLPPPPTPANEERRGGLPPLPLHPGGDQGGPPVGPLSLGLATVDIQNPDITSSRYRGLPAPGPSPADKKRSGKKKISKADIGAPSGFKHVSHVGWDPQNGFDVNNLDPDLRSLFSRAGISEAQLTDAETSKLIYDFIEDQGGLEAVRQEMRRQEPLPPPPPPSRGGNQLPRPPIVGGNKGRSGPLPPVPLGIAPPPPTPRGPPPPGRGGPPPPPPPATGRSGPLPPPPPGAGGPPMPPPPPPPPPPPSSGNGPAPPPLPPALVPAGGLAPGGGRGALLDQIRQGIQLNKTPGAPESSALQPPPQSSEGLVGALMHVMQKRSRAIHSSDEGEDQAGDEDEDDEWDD
Experiment: YFP-WASp expression in 293T cells treated with compounds, densitometric Western blot analysis
Type: cell-based
Conditions: 293T cells transfected with YFP-WASp
Method: Compounds were obtained and from ChemBridge Corporation. San Diego, Calif., USA. Of the compounds obtained, 14 were considered potential agents for modulating WASp expression, by their potential to bind to WASp. The 14 compounds were tested in 293T cells using the following procedure. The compounds were individually dissolved in DMSO to make a stock solution of 20 millimolar (mM) and kept stored at −20° C. […] Cells were collected and counted. […]
assay.readout: effect on WASp expression in cells

1. CC(=O)N[C@H]1C[C@@H](c2ccc3c(c2)nnn3C)O[C@@H](c2ccc(Cl)cc2)C1: increase WASp expression
2. COCC1CCN(c2ccc(C(=O)N3CCC(N4CCOCC4)CC3)cn2)C1 (stereo not drawn): increase WASp expression
3. Cc1cc(C)n(C2CCN(C(=O)c3cc(COc4ccccc4)[nH]n3)C2)n1 (stereo not drawn): increase WASp expression

* * *

target: WASp (Homo sapiens, UniProt P42768); construct: expressed in transfected cells; host or cells: 293T cells, calcium-phosphate transfection; test: YFP-WASp expression in 293T cells treated with compounds, densitometric Western blot analysis; assay type: cell-based; conditions: YFP-WASp expression in transfected 293T cells relative to DMSO solvent control; compound 10-80 μM, overnight
// reported Relative expression per item
assay.readout: Relative expression

1) COCC1CCN(c2ccc(C(=O)N3CCC(N4CCOCC4)CC3)cn2)C1 (stereo not drawn): 1.5
2) COc1ccccc1-c1cccc(C(=O)NC(C)Cc2ccccn2)c1 (stereo not drawn): 0.5
3) CC(C)c1n[nH]c2c1CN(C(=O)c1cccc(C#CC(C)(C)O)c1)CC2: 0.6
4) CC(=O)N[C@H]1C[C@@H](c2ccc3c(c2)nnn3C)O[C@@H](c2ccc(Cl)cc2)C1: 6.7
5) Cc1cc(C)n(C2CCN(C(=O)c3cc(COc4ccccc4)[nH]n3)C2)n1 (stereo not drawn): 2.1
6) COc1ccc(CN2C(=O)N(CC(C)C)C3(CCN(C4Cc5ccccc5C4)CC3)C2=O)cc1: 0.3
